pKi: −log10 of the molar value.
// compounds with reported pKi on Beta-secretase 1 (Homo sapiens, UniProt P56817), multi-publication
measuredMetric: pKi

Record excerpt, results attached:
sampleSmiles: C[C@@]1(F)CC(F)(F)[C@@](C)(c2cc(NC(=O)c3ccc(Cl)cc3)ccc2F)N=C1N
numericReadout: 6.13
//
sampleSmiles: Cc1nc(C(=O)Nc2ccc3c(c2)[C@]2(COC3)CS(=O)(=O)C(C)(C)C(=N)N2)co1
numericReadout: 7.18
//
sampleSmiles: CN1C[C@@](C)(c2cc(NC(=O)c3ccc(C(F)(F)F)cn3)ccc2F)NC(=N)C(C)(C)S1(=O)=O
numericReadout: 7.23
//
sampleSmiles: Cc1ncc2c(n1)C[C@@](C)(c1cc(NC(=O)c3ccc(C(F)(F)F)cn3)ccc1F)NC2=N
numericReadout: 7.74
//
sampleSmiles: C[C@H]1C[C@@H]2[C@](c3cc(Oc4ncc(F)cc4F)ccc3F)(CO1)NC(=N)N(C)S2(=O)=O
numericReadout: 7.60
//
sampleSmiles: C[C@@]1(c2cc(-c3cccc(C#N)c3)ccc2F)Cc2ncncc2C(=N)N1
numericReadout: 6.08
//
sampleSmiles: CN1C(=N)N[C@](C)(c2sc(-c3cncc(-c4cnco4)c3)cc2F)CS1(=O)=O
numericReadout: 7.74
//
sampleSmiles: CN=[S@]1(=O)C[C@@](C)(c2cc(Nc3ncnc4cc(Br)cnc34)ccc2F)NC(=N)C1(C)C
numericReadout: 8.00
//
sampleSmiles: Cc1ncc2c(n1)C[C@@](C)(c1sc(-c3cccc(C#N)c3)cc1Cl)NC2=N
numericReadout: 7.28
//
sampleSmiles: C[C@]1(F)CC(F)(F)[C@@](C)(c2cc(NC(=O)c3ccn(C(F)F)n3)ccc2F)N=C1N
numericReadout: 7.72

a = Cn1cnc(C(=O)Nc2ccc(F)c([C@@]3(C)N=C(N)[C@@](C)(F)CC3(F)F)c2)n1
b = CC#CCOc1ccc(C(=O)Nc2ccc3c(c2)[C@]2(CCO3)CS(=O)(=O)C(C)(C)C(=N)N2)nc1
Which has the smaller recorded pKi, a or b ? Your answer should be the label of the entry you select. a

###

// compounds with reported pKi on Beta-secretase 1 (Homo sapiens), multi-publication
pKi: −log10 of the molar value.
measuredMetric: pKi

Record excerpt, results attached:
sampleSmiles: COc1ccc(C(=O)Nc2ccc(F)c([C@@]3(C)NC(=N)N(C)S(=O)(=O)[C@@]34CCN(Cc3cncnc3)C4)c2)nc1
pKi: 8.40

sampleSmiles: COc1cnc(C(=O)Nc2ccc(F)c([C@@]3(C(F)F)N=C(N)CCC3(F)F)c2)nc1
pKi: 8.16

A = [2H]C([2H])([2H])Oc1ccc(C(=O)Nc2ccc(F)c([C@@]3(CF)N=C(N)CCC3(F)F)c2)nc1
B = C[C@@]1(c2sc(-c3cccc(N4CCCC4)c3)cc2Cl)CS(=O)(=O)C2(CCOCC2)C(=N)N1
Compare A and B by numeric pKi and name the larger one. Your answer should be the label of the entry you select. A

###

// molecules with reported Ki on Beta-secretase 1 (Homo sapiens, UniProt P56817), multi-publication
measuredMetric: Ki (nM)

molecule: COc1cnc(C(=O)Nc2ccc(F)c([C@]3(CF)CC[C@](F)(CF)C(N)=N3)c2)cn1
unitAnnotation: nM
Ki: 160

P = CN1C(=N)N[C@](C)(c2sc3c(-c4ccc(-n5nccn5)cc4)nccc3c2Cl)CS1(=O)=O
Q = CN1C(=N)N[C@](C)(c2sc(-c3nnc(-c4ccc(C5CCC(F)(F)C5)cc4)o3)cc2Cl)CS1(=O)=O (stereo partly shown)
R = COc1ccnc(N2CCN(c3nccc4c(Cl)c([C@]5(C)CS(=O)(=O)N(C)C(=N)N5)sc34)CC2)c1
S = CC1(C)C(=N)N[C@@]2(CCCc3ccc(NC(=O)c4ccc(OC(F)F)cn4)cc32)CS1(=O)=O
T = CN1C(=N)N[C@](C)(c2sc(-c3nnc(-c4ccccn4)o3)cc2Cl)CS1(=O)=O
Please order the records by their reported Ki, lowest number first. The reply should contain the labels ordered as requested. S, P, T, Q, R
(S: 12 nM, P: 224 nM, T: 555 nM, Q: 1110 nM, R: 1860 nM)
